Measurement Name: melting point

[
  {
    "Compound": "CCOC(=O)C=C(C)C=CC=C(C)C=Cc1c(Cl)cc(OC)cc1Cl",
    "Measurement Name": "melting point",
    "Recorded Result": "117 to 118 °C"
  },
  {
    "Compound": "C[C@H](C#Cc1scc(Cc2ccc(F)cc2)c1Cc1ccc(F)cc1)N(O)C(N)=O",
    "Measurement Name": "melting point",
    "Recorded Result": "128 to 130 °C"
  },
  {
    "Compound": "O=C(O)COc1cc(Cl)ccc1C(=O)NCc1cc(C(F)(F)F)cc(C(F)(F)F)c1",
    "Measurement Name": "melting point",
    "Recorded Result": "191 to 193 °C"
  },
  {
    "Compound": "CC(C)(C)OC(=O)N(Cc1ccccc1)S(N)(=O)=O",
    "Measurement Name": "melting point",
    "Recorded Result": "127 °C"
  },
  {
    "Compound": "CCCc1nn(-c2ccc(C(F)(F)F)cn2)cc1CCCOc1c(CC(=O)O)cccc1C(C)C",
    "Measurement Name": "melting point",
    "Recorded Result": "102 to 103 °C"
  },
  {
    "Compound": "CCOC(=O)c1ccc(CN2CCN(c3cc(-c4ccccc4)c4ccc(=O)ccn34)CC2)cc1",
    "Measurement Name": "melting point",
    "Recorded Result": "129 °C"
  },
  {
    "Compound": "Cc1c(N2CCC(N)C2)c(F)cc2c(=O)c(C(=O)O)cn(C3CC3)c12 (centres undefined)",
    "Measurement Name": "melting point",
    "Recorded Result": "187 to 190 °C"
  },
  {
    "Compound": "CCn1c(=N)c(-c2ccc(-c3ccccc3)cc2)cc2cnc(Nc3ccccc3)nc21",
    "Measurement Name": "melting point",
    "Recorded Result": "245 to 249 °C"
  },
  {
    "Compound": "O=C(O)C(Oc1ccc(Cl)cc1)Oc1ccc(C2CCNc3ccccc32)cc1 (centres undefined)",
    "Measurement Name": "melting point",
    "Recorded Result": "152 to 155 °C"
  }
]

---

# maps each entry to its melting point

[
  {
    "Molecule": "COC(=O)C(C)c1cccc(C(=O)c2ccccc2)c1 (stereo not given)",
    "melting point": "50 to 52 °C"
  },
  {
    "Molecule": "C=Cc1ccc2c(c1CCC(=O)OC)CCC(NS(=O)(=O)c1ccc(Cl)cc1)C2 (stereo not given)",
    "melting point": "138 °C"
  },
  {
    "Molecule": "O=S1(=O)c2cccc3cccc(c23)N1CCN1CCC(CC2CNc3ccccc3C2)CC1 (stereo not given)",
    "melting point": "134 °C"
  },
  {
    "Molecule": "NCC1Cc2cc(C(F)(F)F)cc(-c3cc(F)ccc3F)c2O1 (stereo not given)",
    "melting point": "> 250 °C"
  },
  {
    "Molecule": "COc1ccc(C(Sc2cc(Oc3cccc(C)c3)ccc2N)C(O)C(=O)O)cc1 (stereo not given)",
    "melting point": "163 to 165 °C"
  },
  {
    "Molecule": "O=P(c1ccccc1)(c1ccccc1)C(O)c1c(Cl)cccc1Cl (stereo not given)",
    "melting point": "205 to 209 °C"
  },
  {
    "Molecule": "CCOC(=O)N1CCC(Nc2ccc(F)cc2[N+](=O)[O-])CC1",
    "melting point": "115 to 116 °C"
  },
  {
    "Molecule": "COCCN1CCc2cc(Nc3ncc(Cl)c(Nc4ccccc4S(=O)(=O)N(C)C)n3)c(OC)cc2CC1",
    "melting point": "54 to 64 °C"
  },
  {
    "Molecule": "CO[C@@H](C(=O)N[C@H]1CC[C@@H](OC(=O)C2CCCC2)CNC1=O)[C@H](O)[C@@H](O)[C@H](O)/C=C/C(C)(C)C",
    "melting point": "75 to 76 °C"
  },
  {
    "Molecule": "C[C@]12CCC(=O)N[C@@H]1CCc1cc(Sc3cccc(Cl)c3)ccc12",
    "melting point": "186 to 187 °C"
  },
  {
    "Molecule": "CC(C)C(N)=NC(=Nc1ccccc1)N1CCOCC1",
    "melting point": "123 to 126 °C"
  },
  {
    "Molecule": "O=C(O)COc1cccc2c1CCc1sc(NC(c3ccccc3)c3ccccc3)nc1-2",
    "melting point": "250 to 252 °C"
  },
  {
    "Molecule": "COCCNC(N)=Nc1nc(-c2cccc(CNC(=O)CN)c2)cs1",
    "melting point": "66 to 67 °C"
  },
  {
    "Molecule": "Nc1ccc(C2=NC(O)C(=O)Nc3ccc(Cl)cc32)cc1 (stereo not given)",
    "melting point": "> 350 °C"
  },
  {
    "Molecule": "CC(C)(C)OC(=O)c1ccc(C=Cc2cnc3nc(N)nc(N)c3c2)cc1",
    "melting point": "> 350 °C"
  },
  {
    "Molecule": "Cn1c(C(F)(F)F)ccc(-c2cc(S(C)=O)c(Cl)cc2F)c1=O (stereo not given)",
    "melting point": "147 to 148 °C"
  },
  {
    "Molecule": "O=C(CCc1nc(-c2ccccn2)no1)NC1CCN(Cc2ccc(F)c(Cl)c2)CC1",
    "melting point": "150 °C"
  },
  {
    "Molecule": "CN1CCN(C(=O)c2cnc(S)n2Cc2cc(F)cc(F)c2)CC1",
    "melting point": "243 to 244 °C"
  },
  {
    "Molecule": "CCOC(=O)C(=CNc1cccc2c1CCC2)C(=O)OCC",
    "melting point": "25 to 30 °C"
  },
  {
    "Molecule": "Cn1cc(C2c3ccc(Cl)cc3C=Cc3sc(OCCn4ccnc4)nc32)c(=S)[nH]c1=O (stereo not given)",
    "melting point": "190 to 193 °C"
  }
]

Source of measurements: a melting point compilation (Tetko et al.; mined from patent text by program, amines drawn as free bases though some values may be those of a salt)
